These data points were gathered from the supplement of paper PMC11875167.

TEST SUMMARY: observed amide hydrogen exchange rate constant kobs (stretched exponential fit, FD-normalized) (s^-1); higher = faster H/D exchange (less protection)
MEASUREMENT SETUP: pH 3 (pH read); temperature: 20 °C; D2O: 88%
Recorded observed amide hydrogen exchange rate constant kobs values for a group of substances are listed next.
REPORTED ENDPOINT: observed amide hydrogen exchange rate constant kobs

INSERT INTO assay_data (substance, endpoint_value) VALUES
  ('GIGYLK', 0.00124),
  ('VFEGNRPTNSIVFTK', 0.000712),
  ('TLLGDGPVVTDPK', 0.000938),
  ('VRVELSNGEK', 0.00127),
  ('LLLPGELAK', 0.000859),
  ('SNEILTAIIQGMR', 0.000423),
  ('YISPDQLADLYK', 0.000916),
  ('EVFEDAAEIR', 0.002),
  ('GADFLVTEVENGGSLGSK', 0.00147),
  ('AIPQLQGYLR', 0.00091),
  ('ALWFQGR', 0.00126),
  ('AGFAGDDAPR', 0.00357),
  ('KLEAAEER', 0.00257),
  ('IHPVSTMVK', 0.000804),
  ('IGPLGLSPK', 0.000838),
  ('ELLDLLYK', 0.000866),
  ('TLVLLMGK', 0.000552),
  ('HIADLAGNSEVILPVPAFNVINGGSHAGNK', 0.00138),
  ('ENALVQMADGNQAQLAMSHLNGHK', 0.00127);

* * *

TEST SUMMARY: observed amide hydrogen exchange rate constant kobs (stretched exponential fit, FD-normalized) (s^-1); higher = faster H/D exchange (less protection)
MEASUREMENT SETUP: pH 3 (pH read); temperature: 20 °C; D2O: 88%
Class (by observed amide hydrogen exchange rate constant kobs) -- low: < 0.001; moderate: ≥ 0.001 and < 0.002; high: ≥ 0.002

INSERT INTO measurements (substance, class_assignment) VALUES
  ('EKPYFPIPEEYTFIQNVPLEDR', 'low'),
  ('SESPKEPEQLRK', 'moderate'),
  ('ELLPEIR', 'moderate'),
  ('FGYVDFESAEDLEK', 'high'),
  ('PMPNPNPNHPSSSGSFSDADLADGVSGGEGK', 'high'),
  ('IAIYELLFK', 'low'),
  ('LYQSAGGMPGGMPGGFPGGGAPPSGGASSGPTIEEVD', 'moderate'),
  ('ARFEELNADLFR', 'moderate'),
  ('GGSDGYGSGR', 'high'),
  ('AIADTGANVVVTGGK', 'moderate'),
  ('VVSSIEQK', 'moderate'),
  ('IKGEHPGLSIGDVAK', 'moderate'),
  ('RLNINAAK', 'low'),
  ('SYELPDGQVITIGNER', 'low'),
  ('DLTDYLMK', 'moderate'),
  ('VALVYGQMNEPPGAR', 'moderate'),
  ('MGANSLER', 'high'),
  ('TIIPLISQCTPK', 'low');

* * *

TEST SUMMARY: observed amide hydrogen exchange rate constant kobs (stretched exponential fit, FD-normalized) (s^-1); higher = faster H/D exchange (less protection)
MEASUREMENT SETUP: pH 3 (pH read); temperature: 20 °C; D2O: 88%
So basically: observed amide hydrogen exchange rate constant kobs at 0.001 or higher? That is Fulfilled. Lower than 0.001? That is Not fulfilled.

INSERT INTO measurements (substance, class_assignment) VALUES
  ('IETIEVMEDR', 'Fulfilled'),
  ('YLNFFTK', 'Fulfilled'),
  ('ELQEMDKDDESLIK', 'Fulfilled'),
  ('DTGIFLDLMHLK', 'Fulfilled'),
  ('VAVATPAK', 'Not fulfilled'),
  ('FAAATGATPIAGR', 'Fulfilled'),
  ('YIDQEELNK', 'Fulfilled'),
  ('IHFPLATYAPVISAEK', 'Not fulfilled'),
  ('EVSTYIK', 'Not fulfilled'),
  ('APEPHVEEDDDDELDSK', 'Fulfilled'),
  ('SLEGDLEDLK', 'Fulfilled'),
  ('EGVHGGLINKK', 'Fulfilled'),
  ('QIVWNGPVGVFEWEAFAR', 'Fulfilled'),
  ('LFQECCPHSTDR', 'Fulfilled'),
  ('ESTLHLVLR', 'Fulfilled'),
  ('LGEWVGLCK', 'Not fulfilled'),
  ('IDEPLEGSEDR', 'Fulfilled'),
  ('GRGARGGKAEDK', 'Fulfilled'),
  ('FYEAFSK', 'Fulfilled'),
  ('QSKPVTTPEEIAQVATISANGDK', 'Not fulfilled'),
  ('QEYDESGPSIVHRK', 'Fulfilled'),
  ('DAGTIAGLNVLR', 'Not fulfilled'),
  ('ETIEQEK', 'Fulfilled'),
  ('MVVESAYEVIK', 'Not fulfilled'),
  ('VTIAQGGVLPNIQAVLLPK', 'Not fulfilled'),
  ('FHVEEEGK', 'Fulfilled'),
  ('VEVQYK', 'Fulfilled'),
  ('IYVLLR', 'Not fulfilled'),
  ('AMADPEVQQIMSDPAMR', 'Fulfilled'),
  ('DSYVGDEAQSK', 'Fulfilled'),
  ('DLSHIGDAVVISCAK', 'Fulfilled'),
  ('PVHHGVNQLK', 'Fulfilled'),
  ('AAPEASGTPSSDAVSR', 'Fulfilled'),
  ('EDAANNYAR', 'Fulfilled'),
  ('DNLTLWTSDMQGDGEEQNK', 'Fulfilled'),
  ('IISSIEQK', 'Fulfilled'),
  ('IFGVTTLDIVR', 'Not fulfilled'),
  ('PVGSLAGIGEVLGK', 'Fulfilled'),
  ('AGNLGGGVVTIER', 'Not fulfilled'),
  ('LTLHGLQQYYVK', 'Not fulfilled');
